The reported measurements were obtained from paper PMC9441147.

# protocol-description: Lung and plasma PK after single intratracheal dose in treatment-naïve rats
# Format: in vivo
# stated-conditions: rat, lung, other: intratracheal
metric-name: half-life (h)
Express your answer in h, writing the number without its unit.

// half-life value for "COC[C@H](C(=O)Nc1cccc2c(-c3nc(Nc4cccc(S(C)(=O)=O)c4F)ncc3F)c[nH]c12)N1CCN(C)CC1" : 5

---

# Test system: IL-13-induced STAT6 phosphorylation in human CD14+ monocytes
# protocol-description: IL-13-induced STAT6 phosphorylation in monocytes
# Type: cell-based
# stated-conditions: Monocyte, read-out: IC50, IL-13, STAT6
metric-name: IC50 (nM)
Express your answer in nM, writing the number without its unit.

The recorded IC50 with IL-13-induced STAT6 phosphorylation in human CD14+ monocytes for COC[C@H](C(=O)Nc1cccc2c(-c3nc(Nc4cccc(S(C)(=O)=O)c4F)ncc3F)c[nH]c12)N1CCN(C)CC1 [AZD4604] was 23.1
